target: BRAF G466V (Homo sapiens, UniProt P15056, G466V); construct: Horizon Discovery (HCT-116 BRAF−/− cells); host or cells: HCT-116 BRAF−/− cells, clone 8, lentiviral transduction; experiment: BRAF HiBiT degradation assay, C-terminal HiBiT-tagged BRAF G466V overexpressed in HCT-116 BRAF−/− cells (clone 8), Nano-Glo HiBiT Lytic assay; assay type: cell-based; conditions: BRAF G466V; DC50 at 50%: fitted conc. at Y=50
Sequence (P15056 whole entry G466V): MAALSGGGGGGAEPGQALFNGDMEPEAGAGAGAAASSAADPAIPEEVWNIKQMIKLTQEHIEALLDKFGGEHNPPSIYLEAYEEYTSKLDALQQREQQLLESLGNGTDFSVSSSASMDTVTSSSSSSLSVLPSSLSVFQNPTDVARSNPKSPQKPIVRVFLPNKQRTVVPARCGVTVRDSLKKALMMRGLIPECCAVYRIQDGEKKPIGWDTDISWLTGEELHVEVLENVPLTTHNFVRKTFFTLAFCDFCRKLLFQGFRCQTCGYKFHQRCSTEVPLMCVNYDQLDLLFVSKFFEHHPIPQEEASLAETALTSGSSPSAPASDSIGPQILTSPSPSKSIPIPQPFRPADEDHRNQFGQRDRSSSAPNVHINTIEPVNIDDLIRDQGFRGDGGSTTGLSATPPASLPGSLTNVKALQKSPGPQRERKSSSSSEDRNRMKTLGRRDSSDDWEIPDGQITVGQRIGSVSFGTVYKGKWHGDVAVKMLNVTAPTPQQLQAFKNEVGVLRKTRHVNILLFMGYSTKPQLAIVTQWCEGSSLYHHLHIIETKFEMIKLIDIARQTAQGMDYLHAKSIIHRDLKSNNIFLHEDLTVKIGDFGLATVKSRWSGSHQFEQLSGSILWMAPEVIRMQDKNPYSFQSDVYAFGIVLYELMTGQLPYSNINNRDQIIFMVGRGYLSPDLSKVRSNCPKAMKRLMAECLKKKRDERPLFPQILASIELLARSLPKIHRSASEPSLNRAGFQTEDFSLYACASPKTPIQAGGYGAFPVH
READOUT_KIND: DC50

# annotated cases, reported DC50 shown
CCN(C)S(=O)(=O)Nc1cccc(-c2nc(C(C)(C)C)sc2-c2ccnc(Nc3ccc(N4CCN(CC5CCN(c6ccc([C@H]7CCC(=O)NC7=O)cn6)CC5)CC4)cn3)n2)c1F	< 10 nM
CCCS(=O)(=O)Nc1cccc(-c2nc(C3(C)CCN(C(=O)CN4CCC5(CC4)CN(c4ccc6c(c4)C(=O)N(C4CCC(=O)NC4=O)C6=O)C5)CC3)sc2-c2ccnc(N)n2)c1F (racemic)	10 to 50 nM

Provide DC50, recorded with BRAF G466V (Homo sapiens, UniProt P15056, G466V), of CCCS(=O)(=O)Nc1cccc(-c2nc(C(C)(C)C)sc2-c2ccnc(Nc3ccc(C4CCN(C(=O)C5CCN(c6cc(C7CCC(=O)NC7=O)ccn6)CC5)CC4)cc3)n2)c1F (racemic)
> 500 nM

----------
molecular target: BRAF V600E (Homo sapiens, UniProt P15056, V600E); construct: endogenous C-terminal HiBiT fusion tag on BRAF V600E allele; endogenous in cells; host or cells: A375 clone 1F10 (CRISPR-Cas9 knock-in of the HiBiT tag; parental A375 from ATCC); assay: BRAF HiBiT degradation assay, C-terminal HiBiT-tagged BRAF V600E A375 cells (clone 1F10), Nano-Glo HiBiT Lytic assay; assay type: cell-based; conditions: A-375; A375 (BRAF V600E); percentage protein degraded at maximal compound effect relative to DMSO
Sequence (P15056 whole entry V600E, the tested form may be a part): as the sequence (P15056 whole entry G466V) above, with V466G, V600E counted along it
READOUT_KIND: Dmax

# annotated cases, reported Dmax shown
CCCS(=O)(=O)Nc1cccc(-c2nc(C(C)(C)C)sc2-c2ccnc(NCC(C)(C)C3CCN(CC4CCN(c5ccc(C(=O)N[C@H]6CCC(=O)NC6=O)nc5)CC4)CC3)n2)c1F [Compound 146]	30 to 70%
CCCS(=O)(=O)Nc1cccc(-c2nc(C(C)(C)C)sc2-c2ccnc(Nc3cnn(C4CCN(C(=O)C[C@@H]5CCN(c6ccc(C7CCC(=O)NC7=O)cc6)C5)CC4)c3)n2)c1F (mixture of isomers) [Compound 105]	30 to 70%
CCCS(=O)(=O)Nc1cccc(-c2nc(C(C)(C)C)sc2-c2ccnc(Nc3ccc(C4CCN(C(=O)C5CCN(c6ccc(C7CCC(=O)NC7=O)cc6)CC5)CC4)cc3)n2)c1F (racemic) [Compound 37]	30 to 70%
CCCS(=O)(=O)Nc1cccc(-c2nc(C(C)(C)C)sc2-c2ccnc(Nc3cccc(C4CCN(C(=O)CN5CCc6cc(C7CCC(=O)NC7=O)ccc6C5)CC4)c3)n2)c1F (racemic) [Compound 104]	30 to 70%
CCCS(=O)(=O)Nc1cccc(-c2nc(C(C)(C)C)sc2-c2ccnc(Nc3ccc(C4CCN(CC5CCN(c6ccc([C@@H]7CCC(=O)NC7=O)cc6)CC5)CC4)cc3)n2)c1F [Compound 90]	30 to 70%
CCCS(=O)(=O)Nc1cccc(-c2nc(C(C)(C)C)sc2-c2ccnc(Nc3ccc(N4CCN(C(=O)CC5CCN(c6ccc(NC7CCC(=O)NC7=O)cc6)CC5)CC4)c(F)c3)n2)c1F (racemic) [Compound 46]	> 70%

Please look at the following compound next.
Return the recorded Dmax value; entry: CCCS(=O)(=O)Nc1cccc(-c2nc(-c3ccc(C4CCN(CC5CCN(c6ccc([C@@H]7CCC(=O)NC7=O)cc6)CC5)CC4)cc3)sc2-c2ccnc(N)n2)c1F [Compound 192]
> 70%
